System: MCF-7 breast cancer cell line
Assay: MTT cytotoxicity assay, MCF-7
Assay type: cell-based, human
Details: IC50 MCF-10 A / IC50 MCF-7, 48 h
We label by threshold. Values of Selectivity Index (SI) 48 h strictly beneath 1 are 1. Values of 1 and up are 0.

These solved cases illustrate the format of a correct answer.
>>> assigned_label("NS(=O)(=O)c1ccc(/N=N/c2ccc(O)c(/C=N/c3ccccc3O)c2)cc1 [Compound 3c]")
1
>>> assigned_label("COc1cccc2c1C(=O)c1c(O)c3c(c(O)c1C2=O)C[C@@](O)(C(=O)CO)C[C@@H]3O[C@H]1C[C@H](N)[C@H](O)[C@H](C)O1 [Doxorubicin, reference compound]")
0
>>> assigned_label("COc1ccc(/N=C/c2cc(/N=N/c3ccc(S(N)(=O)=O)cc3)ccc2O)cc1 [Compound 3f]")
0

Continue with the compound presented below.
Does this compound meet the criterion Selectivity Index (SI) 48 h < 1? NC(=S)N/N=C/c1cc(/N=N/c2ccc(S(N)(=O)=O)cc2)ccc1O [Compound 3j] 0

====

System: MCF-7 breast cancer cell line
Assay: MTT cytotoxicity assay, MCF-7
Type: cell-based, human
Settings: IC50 MCF-10 A / IC50 MCF-7, 72 h
Just a reminder that ties go to label 0: only Selectivity Index (SI) 72 h strictly below 0.3 counts as label 1.

>>> assigned_label("NS(=O)(=O)c1ccc(/N=N/c2ccc(O)c(/C=N/c3ccc(O)cc3)c2)cc1")
"label 1"
>>> assigned_label("NS(=O)(=O)c1ccc(/N=N/c2ccc(O)c(/C=N/c3ccccc3O)c2)cc1")
"label 1"
>>> assigned_label("COc1cccc2c1C(=O)c1c(O)c3c(c(O)c1C2=O)C[C@@](O)(C(=O)CO)C[C@@H]3O[C@H]1C[C@H](N)[C@H](O)[C@H](C)O1 [Doxorubicin, reference compound]")
"label 0"
>>> assigned_label("NC(=S)N/N=C/c1cc(/N=N/c2ccc(S(N)(=O)=O)cc2)ccc1O")
"label 0"

Now consider a different compound.
Please check: Selectivity Index (SI) 72 h for `COc1ccc(/N=C/c2cc(/N=N/c3ccc(S(N)(=O)=O)cc3)ccc2O)cc1` , strictly under 0.3 or not? label 0

====

System: MCF-7 breast cancer cell line
Assay: MTT cytotoxicity assay, MCF-7
Format: cell-based, human
Conditions: Homo sapiens, MCF7, 48 h, read-out: IC50 ±SD MCF-7 48 h
pIC50: −log10 of the molar value.
Class True: pIC50 at least 5. Class False: pIC50 below 5.

The examples below pair each entry with its known result.
>>> assigned_label("NS(=O)(=O)c1ccc(/N=N/c2ccc(O)c(/C=N/c3ccccc3O)c2)cc1 [Compound 3c]")
"False"
>>> assigned_label("COc1cccc2c1C(=O)c1c(O)c3c(c(O)c1C2=O)C[C@@](O)(C(=O)CO)C[C@@H]3O[C@H]1C[C@H](N)[C@H](O)[C@H](C)O1 [Doxorubicin, reference compound]")
"True"

Now look at this entry.
# bool: pIC50 of NC(=S)N/N=C/c1cc(/N=N/c2ccc(S(N)(=O)=O)cc2)ccc1O [Compound 3j] >= 5 True
